Please go through the items and note down their melting point.

Below: 3 molecules and their reported melting point.
CC(C(=O)c1ccc(O)cc1)N1CCN(Cc2ccccc2)CC1 (stereo not shown) ... 58 to 59 °C
CC(C(=O)c1ccc(O)cc1)N1CCN(c2ccccc2)CC1 (stereo not shown) ... 163 to 165 °C
CC(C(=O)c1ccccc1)N1CCN(c2ccccc2)CC1 (stereo not shown) ... 105 to 106 °C

Moving on to another molecule below.
Entry COc1ccc(C(=O)C(C)N2CCN(c3ccccc3)CC2)cc1 (stereo not shown) — recorded melting point = 117 to 119 °C

----------
Target: S1R (Cavia porcellus)
Construct: Fresh guinea pig brain cortex was homogenized in ice-cold Tris (50 mM, pH 7.4); tissue ENVIGO RMS S.R.L., Udine, Italy (animals); host or cells: male Dunkin-Hartley guinea pig brain cortex membranes
Sequence (Q60492 whole entry): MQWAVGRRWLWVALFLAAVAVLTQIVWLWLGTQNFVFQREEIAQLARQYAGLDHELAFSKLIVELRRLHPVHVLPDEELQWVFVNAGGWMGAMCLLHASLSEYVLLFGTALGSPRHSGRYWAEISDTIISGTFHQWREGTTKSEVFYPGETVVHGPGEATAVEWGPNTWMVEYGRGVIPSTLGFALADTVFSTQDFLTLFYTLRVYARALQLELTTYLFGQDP
Assay: S1R radioligand binding assay, [3H](+)-pentazocine, guinea pig brain cortex homogenates
Settings: ratio of Ki S2R to Ki S1R
Please go through the items and note down their S2R/S1R selectivity ratio.
Answers are plain numbers.

Below: 3 molecules and their reported S2R/S1R selectivity ratio.
COc1ccc(C(=O)C(C)N(C)CCCCc2ccccc2)cc1 (stereo not shown) ... 3.3
COc1ccc(C(O)C(C)N2CCCN(Cc3ccccc3)CC2)cc1 (stereo not shown) ... 32
CC(C(=O)c1ccccc1)N1CCCN(Cc2ccccc2)CC1 (stereo not shown) ... 1.6

Moving on to another molecule below.
Entry CC(C(=O)c1ccc(O)cc1)N(C)CCCCc1ccccc1 (stereo not shown) — recorded S2R/S1R selectivity ratio = 0.38
